Source listed as PubChem BioAssay (NCI).

# Test system: SNB-75 CNS
# assaySummary: NCI tumour cell line growth inhibition, 48 h; in the data active means GI50 below about 0.43 µM; inactive means the rest
Give one outcome, nothing more. List: class 1 (active), class 0 (inactive)

Input: For CC1=C([Se]CC(OC(=O)[C@@H](CSSC(C)(C)C)NC(=O)OC(C)(C)C)C(=O)NC(C)(C)C)C(=O)c2ccccc2C1=O (stereo not given in full) , which call appears in the assay record?
Output: class 0

Input: For C(=Nc1ccccc1)C1CCCC[N-]1.C(=Nc1ccccc1)C1CCCC[N-]1.[Cu+2].[O-][Cl+3]([O-])([O-])O (stereo not given) , which call appears in the assay record?
Output: class 0

Input: For CC1[C@@H]2[C@@H](C=C3C4CCC5Cc6nc7c(nc6C[C@@]5(C)C4C[C@H](O)[C@]32CO)CC2CCC3C4=C[C@H]5O[C@@]6(O[C@@](C)(CO)C[C@@H]6O)C(C)[C@@]5(O)[C@]4(C)[C@@H](O)CC3[C@]2(C)C7)O[C@]12CCC(C)(C)O2 (stereo not given in full) , which call appears in the assay record?
Output: class 1

Input: For `CCCN(CCC)CCCNCc1cc(I)cc(C)c1O` , which call appears in the assay record?
Output: class 0

Input: For `COC1=CC(c2ccc[nH]2)=N/C1=C\c1[nH]c(C)c(C(=O)OCc2ccccc2)c1C` , which call appears in the assay record?
Output: class 1
